- target_entity: Leukotriene A-4 hydrolase (Homo sapiens)
- Sequence (P09960 whole entry): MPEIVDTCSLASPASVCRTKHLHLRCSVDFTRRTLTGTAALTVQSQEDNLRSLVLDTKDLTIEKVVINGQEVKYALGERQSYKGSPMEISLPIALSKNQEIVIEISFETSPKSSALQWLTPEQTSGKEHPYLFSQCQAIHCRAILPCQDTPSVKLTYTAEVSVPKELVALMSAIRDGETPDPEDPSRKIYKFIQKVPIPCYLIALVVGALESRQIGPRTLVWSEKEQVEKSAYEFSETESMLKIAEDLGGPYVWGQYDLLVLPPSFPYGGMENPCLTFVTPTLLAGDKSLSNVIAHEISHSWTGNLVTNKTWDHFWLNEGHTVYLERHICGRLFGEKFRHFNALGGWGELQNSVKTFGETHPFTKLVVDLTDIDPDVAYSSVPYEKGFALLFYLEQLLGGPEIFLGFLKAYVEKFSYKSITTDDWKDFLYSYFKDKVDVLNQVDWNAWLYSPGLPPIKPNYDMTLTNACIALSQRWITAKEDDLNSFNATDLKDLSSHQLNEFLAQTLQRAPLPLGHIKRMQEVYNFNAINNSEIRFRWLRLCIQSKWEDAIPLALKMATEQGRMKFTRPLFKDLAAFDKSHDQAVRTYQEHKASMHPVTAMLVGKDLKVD
- test_protocol: Inhibition of human leukotriene A4 hydrolase (LTA-4).
pIC50: −log10 of the molar value.

# smiles_text, qualifying_sign, pIC50
data = [
    ("COC(=O)CCCN(C)CCOc1ccc(Cc2ccccc2)cc1", "=", 6.35),
    ("CN(CCCOc1ccc(Oc2ccc(F)cc2)cc1)CCC(=O)O", "=", 6.80),
    ("CN(CCCOc1ccc(Oc2ccc(-c3ccccc3)cc2)cc1)CCC(=O)O", ">", 9.30),
    ("CN(CCCOc1ccc(Cc2ccccc2)cc1)CCC(N)=O", "=", 8.15),
    ("CN(CCCOc1ccc(Oc2ccccc2)cc1)CCC(=O)O", "=", 7.72),
    ("CN(CCCOc1ccc(Cc2ccccc2)cc1)CCn1cnnn1", "=", 5.78),
]
